Sourced from patent US20080139607A1

# Test System: Recombinant human PAI-1 (Homo sapiens)
# Sequence (P05121 24-402): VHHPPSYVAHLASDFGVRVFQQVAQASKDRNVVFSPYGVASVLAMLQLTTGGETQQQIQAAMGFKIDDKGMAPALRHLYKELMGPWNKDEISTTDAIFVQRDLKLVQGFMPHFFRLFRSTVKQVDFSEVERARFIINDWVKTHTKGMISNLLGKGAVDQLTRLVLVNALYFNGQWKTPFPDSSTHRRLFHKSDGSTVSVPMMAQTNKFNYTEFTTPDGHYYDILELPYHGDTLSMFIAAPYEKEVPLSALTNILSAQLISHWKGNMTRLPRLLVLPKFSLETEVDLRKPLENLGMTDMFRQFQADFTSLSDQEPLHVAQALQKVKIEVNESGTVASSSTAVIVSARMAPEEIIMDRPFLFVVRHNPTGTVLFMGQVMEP
# Protocol Details: Plasma clot lysis assay for testing of PAI-1 inhibitors (clot lysis in platelet-poor plasma)
# Condition Summary: concentration at which clot lysis time is halved (pIC50=-log IC50); platelet-poor plasma 50%, PAI-1 10-13 ng/mL, t-PA 34 ng/mL, 37° C.
pIC50: −log10 of the molar value.
Parameter: pIC50

INSERT INTO measurements (compound, measured_number) VALUES
  ('CCCCc1c(-c2cccc(C(F)(F)F)c2)c2n(c(=O)c1[N+](=O)[O-])[C@H](C(=O)O)CS2 [Example 15]', 4.40),
  ('CCCCCCc1c(-c2cccc(C(F)(F)F)c2)c2n(c(=O)c1[N+](=O)[O-])[C@H](C(=O)O)CS2 [Example 12]', 4.90),
  ('CCCCCCCCc1cc(=O)n2c(c1-c1cccc(C(F)(F)F)c1)SC[C@H]2C(=O)O [Example 18]', 5.40),
  ('CCCCCCCc1cc(=O)n2c(c1-c1ccc(F)c(F)c1)SC[C@H]2c1nnn[nH]1 [Example 5]', 4.60),
  ('CCCCCCCc1cc(=O)n2c(c1-c1c[nH]c3ccccc13)SC[C@H]2C(=O)O [Example 20]', 4.90),
  ('CCCCCCCc1cc(=O)n2c(C(=O)O)csc2c1-c1ccc(F)c(F)c1 [Example 23]', 5.00),
  ('CCCCCCCc1c(-c2ccc(F)c(F)c2)c2n(c(=O)c1[N+](=O)[O-])[C@H](C(=O)O)CS2 [Example 17]', 4.70),
  ('CCCCCCCc1cc(=O)n2c(c1-c1ccc(F)c(F)c1)SC[C@@H]2C(=O)O [Example 11]', 5.00),
  ('CCCCCCc1c(-c2cccc(C(F)(F)F)c2)c2n(c(=O)c1N)[C@H](C(=O)O)CS2 [Example 14]', 4.90),
  ('CCCCCCCc1cc(=O)n2c(c1-c1cccc(C(F)(F)F)c1)SC[C@H]2C(=O)O [Example 7]', 4.90),
  ('CCCCCCCc1cc(=O)n2c(c1-c1cccs1)SC[C@H]2C(=O)O [Example 19]', 5.00),
  ('CCCCc1cc(=O)n2c(c1-c1cccc(C(F)(F)F)c1)SC[C@H]2C(=O)O [Example 9]', 4.40),
  ('CCCCCCCc1cc(=O)n([C@@H](C)C(=O)O)cc1-c1ccc(F)c(F)c1 [Example 3]', 4.90),
  ('O=C(O)[C@@H]1CSc2c(-c3ccccc3)c(CCCOc3ccc(Cl)cc3Cl)cc(=O)n21 [Example 21]', 4.90);
